tested on: Trypanosoma brucei rhodesiense; experiment: Antitrypanosomal activity against Trypanosoma brucei rhodesiense IL-1501 assessed as inhibition of parasitic growth incubated for 69 hrs by resazurin dye based fluorescence assay; type: functional, organism-based; settings: IL-1501, 69 h
pIC50: −log10 of the molar value.
Measured Parameter: pIC50

[
  {
    "Molecule": "COC1=CC(=O)N(C(=O)C2CCCN2)[C@H]1C(C)C (single isomer, unassigned)",
    "Measured Parameter": "pIC50",
    "Number": 4.48
  },
  {
    "Molecule": "CC[C@H](C)[C@@H](C(=O)N1CCCC1C(=O)N1C(=O)C=C(OC)[C@@H]1C(C)C)N(C)C(=O)[C@@H]1CCCN1 (single isomer, unassigned)",
    "Measured Parameter": "pIC50",
    "Number": 4.82
  },
  {
    "Molecule": "CC[C@H](C)[C@@H](C(=O)N1CCC[C@@H]1C(=O)N1C(=O)C=C(OC)[C@@H]1C(C)C)N(C)C(=O)[C@@H]1CCCN1C(=O)[C@H](C(C)C)N(C)C(=O)[C@@H](Cc1ccccc1)NC(=O)[C@H](Cc1ccccc1)N(C)C",
    "Measured Parameter": "pIC50",
    "Number": 5.74
  },
  {
    "Molecule": "COC1=CC(=O)N[C@H]1C(C)C",
    "Measured Parameter": "pIC50",
    "Number": 4.46
  },
  {
    "Molecule": "CC[C@H](C)[C@@H](C(=O)N1CCCC1C(=O)N1C(=O)C=C(OC)[C@@H]1C(C)C)N(C)C(=O)[C@@H]1CCCN1C(=O)[C@@H](NC)C(C)C (single isomer, unassigned)",
    "Measured Parameter": "pIC50",
    "Number": 4.77
  }
]

A. N=C(N)c1ccc(OCCCCCOc2ccc(C(=N)N)cc2)cc1
B. CC[C@H](C)[C@H](NC)C(=O)N1CCCC1C(=O)N1C(=O)C=C(OC)[C@@H]1C(C)C (single isomer, unassigned)
Task: Please indicate which has the smaller reported pIC50: A , or B . Give the label of your selection.
Result: B
(B: 4.62, A: 8.30)
